Assignment: determine reported fold change of affinity for the given binders.
- ASSAY_SYSTEM: T1, Human CD3eg linker (human)
- T1 construct: single-chain construct; also called recombinant human CD3
- T1 chain: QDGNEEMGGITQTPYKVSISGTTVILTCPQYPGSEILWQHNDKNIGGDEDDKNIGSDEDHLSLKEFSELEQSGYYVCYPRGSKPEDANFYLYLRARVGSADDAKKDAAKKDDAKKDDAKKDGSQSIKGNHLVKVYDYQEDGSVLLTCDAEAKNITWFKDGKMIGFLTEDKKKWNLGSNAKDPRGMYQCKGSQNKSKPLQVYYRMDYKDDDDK
- PROTOCOL_NOTES: SPR, vs unmutated H183/L072
Entry rule: numbers only, all in fold.

Input line: Fill in the blank: the reported fold change of affinity of dBBDu183H H93R/dBBDu072L (antibody, name in Kabat numbering, V domains shown) VH: QVQLVESGGGLVQPGRSLRLSCAASGFTFSNAWMHWVRQAPGKGLEWVAQIKDKGNAYAAYYAPSVKGRFTISRDDSKNSIYLQMNSLKTEDTAVYYCRYVHYASASTVLPAFGVDAWGQGTTVTVSS VL: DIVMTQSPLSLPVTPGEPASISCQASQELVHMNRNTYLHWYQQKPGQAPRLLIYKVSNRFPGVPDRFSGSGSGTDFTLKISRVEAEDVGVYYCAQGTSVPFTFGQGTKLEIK is ____.
Output line: 2.4

Input line: Fill in the blank: the reported fold change of affinity of dBBDu183H A100fY/dBBDu072L (antibody, name in Kabat numbering, V domains shown) VH: QVQLVESGGGLVQPGRSLRLSCAASGFTFSNAWMHWVRQAPGKGLEWVAQIKDKGNAYAAYYAPSVKGRFTISRDDSKNSIYLQMNSLKTEDTAVYYCHYVHYASASTVLPYFGVDAWGQGTTVTVSS VL: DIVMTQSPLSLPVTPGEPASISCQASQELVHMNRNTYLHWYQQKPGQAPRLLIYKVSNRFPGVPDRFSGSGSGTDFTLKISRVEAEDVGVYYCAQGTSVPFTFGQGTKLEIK is ____.
Output line: 1.5

Input line: Fill in the blank: the reported fold change of affinity of dBBDu183H A102R/dBBDu072L (antibody, name in Kabat numbering, V domains shown) VH: QVQLVESGGGLVQPGRSLRLSCAASGFTFSNAWMHWVRQAPGKGLEWVAQIKDKGNAYAAYYAPSVKGRFTISRDDSKNSIYLQMNSLKTEDTAVYYCHYVHYASASTVLPAFGVDRWGQGTTVTVSS VL: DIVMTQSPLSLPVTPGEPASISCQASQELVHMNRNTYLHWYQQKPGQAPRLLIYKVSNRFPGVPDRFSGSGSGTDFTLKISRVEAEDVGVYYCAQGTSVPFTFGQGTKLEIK is ____.
Output line: 1

Hello, the source for this data is patent US20210388087A1, in case you need it.
